Tested on: HELA cells (Acc57)
Assay: Cytotoxicity assay (MTT reduction), HELA cells
Format: cell-based
Details: Hela cells
Where a SMILES comes first, the peptide text is derived from it.
endpoint.label: Cytotoxicity LC50/GI50 Hela cells (µM)
Answers are plain numbers, in µM.

In: Query the reported Cytotoxicity LC50/GI50 Hela cells for HELA cells (Acc57); item: CCCC[C@@H]1NC(=O)[C@@H]2CCCN2C(=O)[C@@H]2CCCN2C(=O)[C@H](CC(=O)O)NC(=O)[C@H](CO)NC(=O)[C@H](CCCCN)NC(=O)[C@H]([C@@H](C)O)NC(=O)[C@@H]2CSSC[C@H](NC1=O)C(=O)N[C@@H](CCCNC(=N)N)C(=O)N1CCC[C@@H]1C(=O)N1CCC[C@H]1C(=O)N[C@@H]([C@@H](C)CC)C(=O)N2 [Ex. 19] (HELM PEPTIDE1{I.C.T.K.S.D.P.P.[Nle].C.R.[dP].P}$PEPTIDE1,PEPTIDE1,2:R3-10:R3|PEPTIDE1,PEPTIDE1,1:R1-13:R2$$$V2.0)
Out: 100

----------
Target: Elastase from human neutrophils (Homo sapiens)
Sequence (P08246 30-267): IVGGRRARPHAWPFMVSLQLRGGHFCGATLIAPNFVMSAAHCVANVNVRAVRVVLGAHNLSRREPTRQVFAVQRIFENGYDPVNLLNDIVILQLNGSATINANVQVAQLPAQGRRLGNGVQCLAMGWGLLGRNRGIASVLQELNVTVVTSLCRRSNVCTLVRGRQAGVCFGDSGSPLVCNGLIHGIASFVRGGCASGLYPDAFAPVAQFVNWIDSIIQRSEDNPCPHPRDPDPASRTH
Assay: Enzymatic assay, elastase
Conditions: Elastase IC50
Where a SMILES comes first, the peptide text is derived from it.
endpoint.label: IC50 (nM)
Give bare numbers, in nM.

In: Query the reported IC50 for Elastase from human neutrophils (Homo sapiens); item: CCCC[C@@H]1NC(=O)[C@H]([C@@H](C)O)NC(=O)[C@@H]([C@H](C)O)NC(=O)[C@H](Cc2ccc(O)cc2)NC(=O)[C@@H]2CSSC[C@H](NC1=O)C(=O)N[C@@H]([C@@H](C)O)C(=O)N[C@@H](C)C(=O)N[C@@H](CO)C(=O)N[C@@H]([C@@H](C)CC)C(=O)N1CCC[C@H]1C(=O)N1CCC[C@H]1C(=O)N[C@@H](CCC(N)=O)C(=O)N2 [Ex. 126] (HELM PEPTIDE1{A.S.I.P.P.Q.C.Y.[dT].T.[Nle].C.T}$PEPTIDE1,PEPTIDE1,7:R3-12:R3|PEPTIDE1,PEPTIDE1,1:R1-13:R2$$$V2.0)
Out: 36

----------
Molecular target: Trypsin, from human pancreas (Homo sapiens)
Assay: Enzymatic assay, trypsin
Conditions: at 100 μM
Where a SMILES comes first, the peptide text is derived from it.
endpoint.label: Trypsin at 100 μM % (%)
One number for each entry, in %.

C[C@@H]1NC(=O)[C@H]([C@@H](C)O)NC(=O)[C@@H]2CSSC[C@H](NC(=O)[C@H](CCC(N)=O)NC(=O)[C@@H]3CCCN3C(=O)[C@@H]3CCCN3C(=O)[C@H](CC3CCCCC3)NC(=O)[C@H](CO)NC1=O)C(=O)N[C@@H](Cc1ccccc1)C(=O)N1CCC[C@@H]1C(=O)N1CCC[C@H]1C(=O)N[C@@H](CCc1ccccc1)C(=O)N2 [Ex. 155] (HELM PEPTIDE1{[O=C([C@H](CCc1ccccc1)N[*:1])[*:2]].C.T.A.S.[Cha].P.P.Q.C.F.[dP].P}$PEPTIDE1,PEPTIDE1,2:R3-10:R3|PEPTIDE1,PEPTIDE1,1:R1-13:R2$$$V2.0)
18

Let us examine a further case.
In: Entry under review: CCCC[C@@H]1NC(=O)[C@H](CCCNC(=N)N)NC(=O)[C@@H]2CCCN2C(=O)[C@H]2CCCN2C(=O)[C@H](Cc2ccccc2)NC(=O)[C@H](CCCC)NC(=O)[C@H]([C@@H](C)CC)NC(=O)[C@@H]2CCCN2C(=O)[C@@H]2CCCN2C(=O)[C@H](CC(=O)O)NC(=O)[C@H](CO)NC(=O)[C@H](CCCCN)NC(=O)[C@H]([C@@H](C)O)NC1=O [Ex. 8] (HELM PEPTIDE1{R.[Nle].T.K.S.D.P.P.I.[Nle].F.[dP].P}$PEPTIDE1,PEPTIDE1,1:R1-13:R2$$$V2.0) . Reported Trypsin at 100 μM %?
Out: 74.2
